# Tested on: Human immunodeficiency virus 1
# assay-protocol: Ratio of EC50 for HIV1 NL4-3 harboring L23I/K43I/M46I/I50L/G51A/A71V amino acid substitution in protease encoding region to EC50 for HIV1 NL4-3
# Type: functional
Documented Ratio EC50 across a set of compounds
assay-metric: Ratio EC50

1) CC(C)CN(C[C@@H](O)[C@H](Cc1ccccc1)NC(=O)O[C@H]1CCOC1)S(=O)(=O)c1ccc(N)cc1 | 6
2) COc1ccc(S(=O)(=O)N(C[C@@H]2CCC(=O)N2)C[C@@H](O)[C@H](Cc2ccccc2)NC(=O)O[C@@H]2C[C@@H]3CCO[C@@H]3C2)cc1 | 1
3) COC(=O)N[C@H](C(=O)N[C@@H](Cc1ccccc1)[C@@H](O)CN(Cc1ccc(-c2ccccn2)cc1)NC(=O)[C@@H](NC(=O)OC)C(C)(C)C)C(C)(C)C [ATAZANAVIR] | 72
